For each record, write down the corresponding EC50.
Tested on: HCV replicon in Huh7 cells
TEST SUMMARY: HCV replicon cell-based assay
Parameters: species or system HCV strain 1B
EXPERIMENTAL CONTEXT: Hepatitis C virus, Huh-7, 96 h; HCV replicon, Huh7 cells, 4 days; activity ranges; read-out: EC50

Query :: Sample COc1ccc2c(O[C@@H]3C[C@@H](C(=O)NC4(C(=O)NS(=O)(=O)C5CC5)CC4)N(C(=O)[C@@H](NC(=O)OC(C)(C)C)C(C)(C)C)C3)cc(-c3ccccc3)nc2c1 [Compound 67] — what was its EC50?
Result :: < 5000 nM

Query :: Sample C=C[C@@H]1C[C@]1(NC(=O)C1C[C@@H](Oc2cc(-c3ccccc3)nc3cc(OC)ccc23)CN1C(=O)[C@@H](NC(=O)OCC(C)(C)C)C(C)(C)C)C(=O)NS(=O)(=O)C1CC1 (stereo partly shown) [Compound 125] — what was its EC50?
Result :: < 50 nM

Query :: Sample C=CC1C[C@]1(NC(=O)[C@@H]1C[C@@H](Oc2cc(-c3ccccc3)nc3cc(OC)ccc23)CN1C(=O)[C@@H](NC(=O)OC(C)(C)C)C1CCCC1)C(=O)NS(=O)(=O)C(C)C (stereo partly shown) [Compound 30] — what was its EC50?
Result :: < 50 nM

Query :: Sample C=CC1C[C@]1(NC(=O)[C@@H]1C[C@@H](Oc2cc(-c3ccccc3)nc3cc(OC)ccc23)CN1C(=O)[C@@H](NC(=O)OC(C)(C)C)C(C)(C)C)C(=O)NS(=O)(=O)C1CCCCC1 (stereo in doubt) [Compound 13] — what was its EC50?
Result :: < 500 nM

Query :: Sample COc1ccc2c(O[C@@H]3CC(C(=O)NC4(C(=O)NS(=O)(=O)C5CC5)CC4)N(C(=O)[C@@H](NC(=O)OC(C)(C)C)C(C)C)C3)cc(-c3ccccc3)nc2c1 (stereo partly shown) [Compound 21] — what was its EC50?
Result :: < 5000 nM

Query :: Sample C=C[C@@H]1C[C@]1(NC(=O)C1C[C@@H](Oc2cc(-c3ccccc3)nc3cc(OC)ccc23)CN1C(=O)[C@@H](NC(=O)COc1ccc(OC)cc1)C(C)(C)C)C(=O)NS(=O)(=O)C1CC1 (stereo partly shown) [Compound 108] — what was its EC50?
Result :: < 500 nM

Query :: Sample C=CCC[C@](C)(NC(=O)[C@@H]1C[C@@H](Oc2cc(-c3ccccc3)nc3cc(OC)ccc23)CN1C(=O)C(NC(=O)OC(C)(C)C)C(C)(C)C)C(=O)NS(=O)(=O)c1cccc(C)c1 (stereo partly shown) [Compound 36] — what was its EC50?
Result :: < 500 nM

Query :: Sample CCOC(=O)N[C@H](C(=O)N1C[C@H](Oc2cc(-c3ccccc3)nc3cc(OC)ccc23)C[C@H]1C(=O)N[C@]1(C(=O)NS(=O)(=O)C2CC2)CC1CC)C(C)C (stereo partly shown) [Compound 7] — what was its EC50?
Result :: < 500 nM

Query :: Sample C=CC1C[C@]1(NC(=O)[C@@H]1C[C@@H](Oc2cc(-c3ccccc3)nc3cc(OC)ccc23)CN1C(=O)[C@@H](NC(=O)OC(C)(C)C)C(C)(C)C)C(=O)NS(=O)(=O)CC1CCC1 (stereo in doubt) [Compound 15] — what was its EC50?
Result :: < 5000 nM

Query :: Sample C=C[C@@H]1C[C@]1(NC(=O)C1C[C@@H](Oc2cc(-c3ccccc3)nc3cc(OC)ccc23)CN1C(=O)[C@@H](NC(C)=O)C(C)(C)C)C(=O)NS(=O)(=O)C1CC1 (stereo partly shown) [Compound 98] — what was its EC50?
Result :: < 500 nM

Query :: Sample C=CC1CC1(NC(=O)[C@@H]1C[C@@H](Oc2cc(-c3ccccc3)nc3cc(OC)ccc23)CN1C(=O)[C@@H](NC(=O)OC(C)(C)C)C(C)C)C(=O)NS(C)(=O)=O (stereo partly shown) [Compound 89] — what was its EC50?
Result :: < 5000 nM

Query :: Sample C=CC1C[C@]1(NC(=O)[C@@H]1C[C@@H](Oc2cc(-c3ccccc3)nc3cc(OC)ccc23)CN1C(=O)C(NC(=O)OC(C)(C)C)C(C)(C)C)C(=O)NS(=O)(=O)c1ccccc1I (stereo partly shown) [Compound 56] — what was its EC50?
Result :: < 500 nM

Query :: Sample COc1ccc2c(OC3C[C@@H](C(=O)NC4(C(=O)NS(=O)(=O)C5CC5)CCC45CC5)N(C(=O)[C@@H](NC(=O)OC(C)(C)C)C(C)(C)C)C3)cc(-c3ccccc3)nc2c1 (stereo partly shown) [Compound 141] — what was its EC50?
Result :: < 5000 nM

Query :: Sample CCC(C)[C@H](NC(=O)OC(C)(C)C)C(=O)N1C[C@H](Oc2cc(-c3ccccc3)nc3cc(OC)ccc23)C[C@H]1C(=O)NC1(C(=O)NS(=O)(=O)C2CC2)CC1 (stereo partly shown) [Compound 68] — what was its EC50?
Result :: < 5000 nM

Query :: Sample COc1ccc2c(O[C@@H]3C[C@@H](C(=O)NC4(C(=O)NS(=O)(=O)C5CC5)CCC4)N(C(=O)[C@@H](NC(=O)OC(C)(C)C)C(C)(C)C)C3)cc(-c3ccccc3)nc2c1 [Compound 22] — what was its EC50?
Result :: < 500 nM

Query :: Sample C=CC1C[C@]1(NC(=O)[C@@H]1C[C@@H](Oc2cc(-c3ccccc3)nc3cc(OC)ccc23)CN1C(=O)[C@@H](N)C(C)(C)C)C(=O)NS(=O)(=O)C1CC1 (stereo partly shown) [Compound 28] — what was its EC50?
Result :: < 5000 nM

Query :: Sample C=CC1C[C@]1(NC(=O)[C@@H]1C[C@@H](Oc2cc(-c3ccccc3)nc3cc(OC)ccc23)CN1C(=O)[C@@H](NC(=O)OC(C)(C)C)C(C)(C)C)C(=O)NS(=O)(=O)c1ccccc1C#N (stereo partly shown) [Compound 50] — what was its EC50?
Result :: < 5000 nM

Query :: Sample C=CC1C[C@]1(NC(=O)[C@@H]1C[C@@H](Oc2cc(-c3ccccc3)nc3cc(OC)ccc23)CN1C(=O)[C@@H](NC(=O)OC(C)(C)C)C(C)(C)C)C(=O)NS(=O)(=O)C1CC1 (stereo in doubt) [Compound 10] — what was its EC50?
Result :: < 50 nM

Query :: Sample CCC1C[C@]1(NC(=O)[C@@H]1C[C@@H](Oc2cc(-c3ccccc3)nc3cc(OC)ccc23)CN1C(=O)[C@@H](NC(=O)OC1CCCC1)C(C)C)C(=O)NS(=O)(=O)C1CC1 (stereo partly shown) [Compound 6] — what was its EC50?
Result :: < 50 nM
